assayed.target: hCB1 (Homo sapiens)
Sequence (P21554 whole entry): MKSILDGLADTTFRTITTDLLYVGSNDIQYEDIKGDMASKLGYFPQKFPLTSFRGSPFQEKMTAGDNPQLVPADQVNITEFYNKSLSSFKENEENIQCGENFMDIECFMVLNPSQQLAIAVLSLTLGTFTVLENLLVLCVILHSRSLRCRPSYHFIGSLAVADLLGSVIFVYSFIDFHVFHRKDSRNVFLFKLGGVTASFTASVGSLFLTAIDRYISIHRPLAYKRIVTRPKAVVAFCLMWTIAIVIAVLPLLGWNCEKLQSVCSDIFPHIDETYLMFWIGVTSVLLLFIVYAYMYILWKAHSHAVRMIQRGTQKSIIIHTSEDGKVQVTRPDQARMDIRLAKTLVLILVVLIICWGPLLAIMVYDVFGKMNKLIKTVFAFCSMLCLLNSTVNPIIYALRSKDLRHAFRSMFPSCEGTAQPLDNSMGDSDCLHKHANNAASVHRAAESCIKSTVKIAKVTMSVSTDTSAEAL
assay.protocol: cell-based

structure.smiles.string	Kb, µM
O=C(NC1CCN(c2ncnc3c2nc(-c2ccccc2Cl)n3-c2ccc(Cl)cc2)CC1)N1CCOCC1	0.34
Cn1cc(NC(=O)NC2CCN(c3ncnc4c3nc(-c3ccccc3Cl)n4-c3ccc(Cl)cc3)CC2)cn1	28
CN1CCC(CNC(=O)NC2CCN(c3ncnc4c3nc(-c3ccccc3Cl)n4-c3ccc(Cl)cc3)CC2)CC1	25
CC1(NC(=O)NC2CCN(c3ncnc4c3nc(-c3ccccc3Cl)n4-c3ccc(Cl)cc3)CC2)CCC(F)(F)CC1	0.0004
